assay explanation: Solubilities at room temperature (about 25°C) in various solvents
Assay type: physicochemical
run parameters: organic solvent or mixture; cyclohexane, room temperature (about 25°C); read-out: Solubility in cyclohexane
reported endpoint: solubility (µg/mL)

> print(dat)
                                   compound  reported.endpoint  readout.units  value
1  CC(C)(C)C(=O)OCOC(=O)[C@@H]1N2C(=O)[C@@H](NC(=O)[C@H](N)c3ccccc3)[C@H]2SC1(C)C [pivampicillin]         solubility          µg/mL    150

====

assay explanation: Solubilities at room temperature (about 25°C) in various solvents
Assay type: physicochemical
run parameters: organic solvent or mixture; light petroleum (bp. 60-80°C), room temperature (about 25°C); read-out: Solubility in light petroleum
reported endpoint: solubility (µg/mL)

> print(dat)
                                   compound  readout.units  value
1  CC(C)(C)C(=O)OCOC(=O)[C@@H]1N2C(=O)[C@@H](NC(=O)[C@H](N)c3ccccc3)[C@H]2SC1(C)C [pivampicillin]          µg/mL     20
